Listing of recorded Emax by entry.
target: Integrin αvβ6 Receptor (Homo sapiens, UniProt P06756+P18564); experiment: HTRF binding activity to integrin αvβ6 receptor (competition with LAP (TGF-beta 1)); conditions: maximum of the inhibition curve, read-out: Max
Sequence (P06756 31-992 limits assumed): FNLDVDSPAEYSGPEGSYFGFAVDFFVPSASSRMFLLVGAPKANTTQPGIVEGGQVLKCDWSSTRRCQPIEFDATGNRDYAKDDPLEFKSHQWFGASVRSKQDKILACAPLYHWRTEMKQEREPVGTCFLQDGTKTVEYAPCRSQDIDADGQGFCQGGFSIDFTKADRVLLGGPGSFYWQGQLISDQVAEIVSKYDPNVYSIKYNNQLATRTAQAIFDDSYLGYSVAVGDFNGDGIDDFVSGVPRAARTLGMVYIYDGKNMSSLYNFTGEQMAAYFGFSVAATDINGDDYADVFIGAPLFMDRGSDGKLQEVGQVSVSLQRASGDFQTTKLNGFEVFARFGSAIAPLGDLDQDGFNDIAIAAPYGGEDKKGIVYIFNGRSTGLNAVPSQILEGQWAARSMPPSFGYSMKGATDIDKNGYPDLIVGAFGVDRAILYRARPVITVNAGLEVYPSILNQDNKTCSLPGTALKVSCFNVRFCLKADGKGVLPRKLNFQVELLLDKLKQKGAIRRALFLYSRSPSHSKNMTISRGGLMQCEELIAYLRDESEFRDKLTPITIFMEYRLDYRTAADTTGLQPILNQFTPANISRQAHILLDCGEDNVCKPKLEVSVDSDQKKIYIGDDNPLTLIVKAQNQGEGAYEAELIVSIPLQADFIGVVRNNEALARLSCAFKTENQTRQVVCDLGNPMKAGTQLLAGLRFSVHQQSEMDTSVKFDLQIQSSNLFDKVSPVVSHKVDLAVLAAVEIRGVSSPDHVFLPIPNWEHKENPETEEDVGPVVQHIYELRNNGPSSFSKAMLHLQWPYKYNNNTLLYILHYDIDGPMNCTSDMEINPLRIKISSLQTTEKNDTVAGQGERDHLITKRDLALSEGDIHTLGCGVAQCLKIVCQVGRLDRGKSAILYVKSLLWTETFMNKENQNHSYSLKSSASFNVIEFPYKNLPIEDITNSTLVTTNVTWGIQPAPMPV
Sequence (P18564 22-707 limits assumed): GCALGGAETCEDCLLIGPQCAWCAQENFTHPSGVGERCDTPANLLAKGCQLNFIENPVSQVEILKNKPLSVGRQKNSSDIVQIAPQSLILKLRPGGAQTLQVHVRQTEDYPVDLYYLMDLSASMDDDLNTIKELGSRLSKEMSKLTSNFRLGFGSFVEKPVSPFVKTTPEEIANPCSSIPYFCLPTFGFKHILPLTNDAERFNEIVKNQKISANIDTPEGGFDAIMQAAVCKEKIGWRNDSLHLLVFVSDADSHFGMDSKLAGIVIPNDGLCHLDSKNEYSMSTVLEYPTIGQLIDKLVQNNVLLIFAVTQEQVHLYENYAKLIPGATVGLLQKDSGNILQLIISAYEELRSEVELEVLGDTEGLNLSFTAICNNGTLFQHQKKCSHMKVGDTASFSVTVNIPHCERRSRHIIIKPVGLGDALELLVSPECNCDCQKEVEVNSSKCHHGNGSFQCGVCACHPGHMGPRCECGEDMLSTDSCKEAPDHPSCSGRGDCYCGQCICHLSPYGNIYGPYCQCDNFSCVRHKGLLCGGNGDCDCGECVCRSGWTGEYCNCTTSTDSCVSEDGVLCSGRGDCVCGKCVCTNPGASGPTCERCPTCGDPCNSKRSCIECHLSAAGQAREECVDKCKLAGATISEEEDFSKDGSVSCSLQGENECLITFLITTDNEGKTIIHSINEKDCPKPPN

INSERT INTO results (molecule, target_of_assay, reported_result) VALUES
  ('O=C(NCc1cn(CCOCCOCCOCCOCCOCCN(CCCCc2ccc3c(n2)NCCC3)CC[C@H](Nc2ncnc3ccccc23)C(=O)O)nn1)c1ccc2c(c1)C(=O)OC21c2ccc(O)cc2Oc2cc(O)ccc21 [Compound 16-5FAM]', 'Integrin αvβ6 Receptor (Homo sapiens, UniProt P06756+P18564)', '101%');

Qu. // Emax lookup, key: CNc1cccc(CC(=O)NCC(=O)N[C@@H](CC(=O)O)c2ccc(-c3ccc(OCCOCCOCCOCCOCCn4cc(CNC(=O)c5ccc6c(c5)C(=O)OC65c6ccc(O)cc6Oc6cc(O)ccc65)nn4)c4ccccc34)cc2)n1 [Compound 6-5FAM]
Ans. 95.8%

Qu. // Emax lookup, key: CC(C)[C@H]1C(=O)N[C@@H](CCCNC(=N)N)C(=O)NCC(=O)N[C@@H](CC(=O)O)C(=O)N[C@H](Cc2ccccc2)C(=O)N1C [Cilengitide, reference compound]
Ans. 98.2%

Qu. // Emax lookup, key: Cc1ccnc(NCCCC(=O)NCC(=O)N[C@@H](CC(=O)O)c2ccc(-c3ccc(OCCOCCOCCOCCOCCn4cc(CNC(=O)c5ccc6c(c5)C(=O)OC65c6ccc(O)cc6Oc6cc(O)ccc65)nn4)c4ccccc34)cc2)c1 [Compound 1-5FAM]
Ans. 97%

Qu. // Emax lookup, key: CNc1cccc(CCCCC(=O)N[C@@H](CC(=O)O)c2ccc(-c3ccc(OCCOCCOCCOCCOCCn4cc(CNC(=O)c5ccc6c(c5)C(=O)OC65c6ccc(O)cc6Oc6cc(O)ccc65)nn4)c4ccccc34)cc2)n1 [Compound 7-5FAM]
Ans. 102%

----------
biological target: Integrin αvβ5 Receptor (Homo sapiens, UniProt P06756+P18084); test: HTRF binding activity to integrin αvβ5 receptor (competition with Vitronectin); conditions: IC50 (nM) αvβ5, Table 4, different integrin receptors
Sequence (P06756 31-992 limits assumed): as the sequence (P06756 31-992 limits assumed) above
Sequence (P18084 24-719 limits assumed): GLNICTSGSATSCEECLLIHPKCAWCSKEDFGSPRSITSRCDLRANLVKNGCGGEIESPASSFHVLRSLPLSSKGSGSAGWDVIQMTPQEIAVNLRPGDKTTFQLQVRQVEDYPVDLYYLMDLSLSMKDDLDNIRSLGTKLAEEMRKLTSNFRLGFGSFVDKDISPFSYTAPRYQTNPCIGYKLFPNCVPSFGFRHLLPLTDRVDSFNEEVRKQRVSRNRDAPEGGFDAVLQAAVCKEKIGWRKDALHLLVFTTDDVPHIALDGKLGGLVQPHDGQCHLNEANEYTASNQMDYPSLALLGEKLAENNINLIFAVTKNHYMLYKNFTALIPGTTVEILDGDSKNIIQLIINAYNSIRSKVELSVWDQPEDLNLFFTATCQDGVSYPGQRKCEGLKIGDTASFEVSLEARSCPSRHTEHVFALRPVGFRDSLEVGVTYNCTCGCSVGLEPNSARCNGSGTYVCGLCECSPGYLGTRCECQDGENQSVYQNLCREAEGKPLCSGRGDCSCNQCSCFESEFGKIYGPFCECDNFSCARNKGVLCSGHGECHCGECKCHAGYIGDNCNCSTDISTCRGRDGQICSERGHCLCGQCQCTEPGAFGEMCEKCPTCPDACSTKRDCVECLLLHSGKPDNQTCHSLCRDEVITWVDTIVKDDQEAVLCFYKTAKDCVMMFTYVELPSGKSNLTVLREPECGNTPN
Value type: IC50 (nM)
Kindly answer with a numeric value in nM, unit omitted.

// below: answered compounds
INSERT INTO measurements (compound, target_of_assay, readout_units, reported_result) VALUES
  ('Cc1ccnc(NCCCC(=O)NCC(=O)N[C@@H](CC(=O)O)c2ccc(-c3ccc(OCCOCCOCCOCCOCCN=[N+]=[N-])c4ccccc34)cc2)c1 [Compound 1, reference compound]', 'Integrin αvβ5 Receptor (Homo sapiens, UniProt P06756+P18084)', 'nM', 3.4),
  ('Cc1ccnc(NCCC2CCN(CC(=O)NC(CC(=O)O)c3ccc(-c4ccc(OCCOCCOCCOCCOCCN=[N+]=[N-])c5ccccc45)cc3)C2=O)c1 (single isomer, unassigned) [Compound 5-P2]', 'Integrin αvβ5 Receptor (Homo sapiens, UniProt P06756+P18084)', 'nM', 142),
  ('[N-]=[N+]=NCCOCCOCCOCCOCCOc1ccc([C@H](CC(=O)O)CN2CC[C@@H](CCc3ccc4c(n3)NCCC4)C2)cc1 (single isomer, unassigned) [Compound 20-P1]', 'Integrin αvβ5 Receptor (Homo sapiens, UniProt P06756+P18084)', 'nM', 0.7),
  ('Cc1ccnc(NCCC2CCN(CC(=O)NC(CC(=O)O)c3ccc(-c4ccc(OCCOCCOCCOCCOCCN=[N+]=[N-])c5ccccc45)cc3)C2=O)c1 (single isomer, unassigned) [Compound 5-P1]', 'Integrin αvβ5 Receptor (Homo sapiens, UniProt P06756+P18084)', 'nM', 83.4);

Proceed to the following item.
Qu. // IC50 lookup, key: [N-]=[N+]=NCCOCCOCCOCCOCCOc1cccc([C@H](CC(=O)O)CN2CC[C@@H](CCc3ccc4c(n3)NCCC4)C2)c1 (single isomer, unassigned) [Compound 18-P1]
Ans. 0.6

----------
Listing of recorded IC50 by entry.
molecular target: Integrin αvβ6 Receptor (Homo sapiens, UniProt P06756+P18564); test: HTRF binding activity to integrin αvβ6 receptor (competition with LAP (TGF-beta 1)); conditions: Integrin αvβ6, HTRF; Table 3, several runs, each with Cilengitide and 1 as references; read-out: IC50
Kindly answer with a numeric value in nM, unit omitted.

INSERT INTO assay_data (compound, target_of_assay, value_type, readout_units, reported_result) VALUES
  ('[N-]=[N+]=NCCOCCOCCOCCOCCOc1ccc(-c2ccc(C(CC(=O)O)CN3CCC(CCc4ccc5c(n4)NCCC5)C3)cc2)cc1 (stereo not drawn)', 'Integrin αvβ6 Receptor (Homo sapiens, UniProt P06756+P18564)', 'IC50', 'nM', 3.8);

Qu. // IC50 lookup, key: Cc1nc(C)n(CCOCCOCCOCCOCCN=[N+]=[N-])c1-c1cccc(C(CC(=O)O)CN2CC[C@@H](CCc3ccc4c(n3)NCCC4)C2)c1 (stereo partly drawn)
Ans. 2.5

Qu. // IC50 lookup, key: Cc1ccnc(NCCC2CCN(CC(=O)NC(CC(=O)O)c3ccc(-c4ccc(OCCOCCOCCOCCOCCN=[N+]=[N-])c5ccccc45)cc3)C2=O)c1 (single isomer, unassigned) [Compound 5-P2]
Ans. 3.9

----------
biological target: Integrin αvβ6 Receptor (Homo sapiens, UniProt P06756+P18564); assay: HTRF binding activity to integrin αvβ6 receptor (competition with LAP (TGF-beta 1)); conditions: Integrin αvβ6, HTRF; Table 3, several runs, each with Cilengitide and 1 as references; read-out: IC50
Listing of recorded IC50 by entry.
Kindly answer with a numeric value in nM, unit omitted.

Qu. // IC50 lookup, key: COCCOc1cc(OCCOCCOCCOCCOCCN=[N+]=[N-])cc(C(CC(=O)O)CN2CCC(CCc3ccc4c(n3)NCCC4)C2)c1 (stereo not drawn)
Ans. 3.3

Qu. // IC50 lookup, key: [N-]=[N+]=NCCOCCOCCOCCOCCOc1cccc([C@H](CC(=O)O)CN2CC[C@@H](CCc3ccc4c(n3)NCCC4)C2)c1 (single isomer, unassigned) [Compound 18-P1]
Ans. 3.2

Qu. // IC50 lookup, key: [N-]=[N+]=NCCOCCOCCOCCOCCOc1ccc(-c2ccc(C(CC(=O)O)CN3CCC(CCc4ccc5c(n4)NCCC5)C3)cc2)c2ccccc12 (stereo not drawn)
Ans. 3.1
